test system: MS2 coat protein; assay: apparent KD of MS2 coat protein, switch OFF state (with FMN for OFF switches, without FMN for ON switches); designed switch direction (-1 OFF switch, 1 ON switch): -1; higher = weaker reporter binding; conditions: FMN input: 0 or 200 uM; Eterna round: R93 (includes R88 designs)
Use class 1 when the recorded apparent KD of MS2 coat protein is no lower than 30 nM; use class 0 when it is lower.

1) GAAACACAUGAGGAUCACCCAUGUCAGGAUAUUCAAACAAAAACAAAACAAAACAAACGAAGAAGGGACAAAAG [Mat - Same state - Mayanna Mod - D102]; class 1
2) CCCAUGUCAGGAUAUCAGUAGUAAAAAAAAAAAAUUACUACUGAGAAGGGACAUGAGGAUCACCCAUGUACCUU [EX4 319: Super Stable 19]; class 1
3) AAAACGGCAGGAUAUACAGUUGAGAACUAGACCGAAAAAAAACAUGAGGAUCACCCAUGUAGAAGGGCCAAAAA [Ex2 Malc#8]; class 1
4) AUCAUGUCAGGAUAUCGUGCAGCUACCGAAAGGUAGCUGCACGAGAAGGGACAUGAGGAUCACCCAUGUAUGAA; class 0
5) AGUUGGCGAGGAUAUACAUGAGGAUCACCCAUGUGAGAAAAAAAAGUGAGAAAGAAAAGUAGAAGGCGCUGACA [Mat - Exclusion 3 - Lego mod - D88]; class 1
6) AAGAAGACAGGAUAUACAUGAGGAUCACCCAUGUAAAAGAAAGAAGGGAAAGAGAAAAGUAGAAGGGUCAAGAA [Menkheperre Ini]; class 0
